These entries and their values trace back to the Deep4Chem optical property database.

Quick reference for photoluminescence quantum yield among some compounds
assay: photoluminescence quantum yield (fraction); solvent given as SMILES; conditions: in C1CCOC1
Readout: photoluminescence quantum yield

Smiles	Readout	Numeric value
CN(C)c1ccc2cc(C3=[O+][B-](F)(F)OC(c4ccc(C#N)cc4)=C3)ccc2c1	photoluminescence quantum yield	0.56
O=C1CCCC2=C1CC1=C(CCCC1=O)N2NC(=O)c1ccccc1	photoluminescence quantum yield	0.33
COc1cc2c(cc1-c1ccc(Cl)cc1)Cc1c3c(c4c(c1-2)-c1cc(OC)c(-c2ccc(Cl)cc2)cc1C4)C(=O)N(CCC(C)C)C3=O	photoluminescence quantum yield	0.52
CCCCOc1ccc(-c2cc3c(o2)c(-c2ccc(OCCCC)cc2)c2n3[B-](F)(F)[N+]3=Cc4c(-c5ccc(OCCCC)cc5)c5oc(-c6ccc(OCCCC)cc6)cc5n4[B-](F)(F)[N+]3=C2)cc1	photoluminescence quantum yield	0.44
CCC1=C(C)C2=C(c3cc(C(=O)Cl)cc(C4=C5C(C)=C(CC)C(C)=[N+]5[B-](F)(F)n5c(C)c(CC)c(C)c54)c3)c3c(C)c(CC)c(C)n3[B-](F)(F)[N+]2=C1C	photoluminescence quantum yield	0.87
COc1ccc2cc(-c3ccc([N+](=O)[O-])cc3)ccc2c1	photoluminescence quantum yield	0.006
CCCCCCCCN1c2ccc(C#Cc3ccc(F)cc3)cc2Sc2cc(C=O)ccc21	photoluminescence quantum yield	0.64
c1ccc(-c2nc3c4ccccc4c4ccccc4c3n2-c2ccccc2)cc1	photoluminescence quantum yield	0.588

---

assay: photoluminescence quantum yield (fraction); solvent given as SMILES; conditions: in CO
Quick reference for photoluminescence quantum yield among some compounds
Readout: photoluminescence quantum yield

> print(dat)
                                    compound  numeric.value
 1              CN(C)c1ccc(/C=C/c2ccccn2)cc1          0.019
 2  COc1ccc(-c2nc(-c3cccc(OC)c3)[nH]c2-c2ccc(OC)cc2)cc1           0.25
 3  CCN(CC)c1ccc2c(c1)oc(=O)c1cc3c(-c4ccccc4)nn(C)c3nc12          0.002
 4  CC(=O)c1ccc2ccc3c(NCCC(=O)NCCCCCCc4nc5c(=O)[nH]c(N)nc5n4[C@H]4C[C@H](O)[C@@H](CO)O4)ccc4ccc1c2c43           0.44
 5  Cc1ccc(C2=C3C=C(I)C(I)=[N+]3[B-](F)(F)n3c2cc(I)c3I)cc1          0.061
 6        COc1ccc(-c2nc(N)nc(C#N)c2C#N)cc1OC         0.0143
 7  CCOC(=O)C1=C(C)NC2=C(C(=O)c3ccccc32)C1c1ccc(N(C)C)cc1 (stereo unspecified)          0.035
 8  COc1ccc(-c2ccc3c(c2)nnn3C[C@H](N)C(=O)O)cc1           0.17
 9                 COCCOc1ccc(OCCOC)c(C=O)c1           0.24
10           O=c1oc2cc3ccccc3cc2nc1-c1ccccc1          0.003
11         O=C(O)CCCc1ccc2ccc3cccc4ccc1c2c34           0.68

---

assay: photoluminescence quantum yield (fraction); solvent given as SMILES; details: in CC(C)O
Hi! Could you tag entries with photoluminescence quantum yield below 0.2 as yes, and those at or above as no? Much appreciated.

> print(dat)
                                    molecule  classification
 1  CCN1C(=CC2=C([O-])C(=Cc3[se]c4ccccc4[n+]3CC)C2=O)[Se]c2ccccc21             yes
 2  Nc1ncnc2c1c(-c1ccc3ccccc3c1)nn2[C@H]1C[C@H](O)[C@@H](CO)O1             yes
 3  COC(=O)C(Cc1ccc2oc(-c3ccc(-n4c5ccccc5c5ccccc54)cc3)nc2c1)NC(=O)OC(C)(C)C (stereo unspecified)              no
 4                 O=C1c2ccccc2-c2cccc(O)c21             yes
 5  COC(=O)c1ccc2c3ccc(C(=O)OC)c4c(C(=O)OC)ccc(c5ccc(C(=O)OC)c1c25)c43              no
 6  CC[n+]1c(C=C2C(=O)C(C=C3N(C)c4ccccc4C3(C)C)=C2[O-])[se]c2ccccc21             yes
 7                    O=c1c2ccccc2sc2ccccc12             yes
 8  CC1(C)Cc2c(c3ccccc3c3nc4c5c(c6ccccc6c4nc23)OC(C)(C)C5)O1              no
 9         CN(C)c1ccc(/C=C/c2nc3ccccc3s2)cc1             yes
10                 COCCOc1ccc(OCCOC)c(C=O)c1              no
11  CC(=O)c1ccc2ccc3c(NCCC(=O)NCCCCCCc4nc5c(=O)[nH]c(N)nc5n4[C@H]4C[C@H](O)[C@@H](CO)O4)ccc4ccc1c2c43              no
12  Cc1ccc(C2CC(c3ccc(O)cc3)=NN2c2ccc(S(N)(=O)=O)cc2)cc1 (stereo unspecified)              no
13      COc1ccc(/C=C2\OC(=O)c3cc(N)ccc32)cc1              no
14  COc1ccc(C#Cc2nc3ccccc3nc2-c2cn(C)c3ccccc23)cc1             yes
15  CN(C)C(=O)c1ccc(-c2nc3ccc(N(C)C)cc3s2)cc1              no
16  CN(C)c1ccc2nc(-c3ccc(C(=O)Nc4ccccc4)cc3)sc2c1              no
17  CN(C)c1ccc2nc(-c3ccc(C(=O)OC(C)(C)C)cc3)sc2c1              no
18     CN(C)c1ccc2nc(-c3ccc(C(=O)O)cc3)sc2c1              no
19  CC1(C)Cc2c(c3ccccc3c3nc4c(nc23)c2c(c3ccccc34)OC(C)(C)C2)O1              no
20  NS(=O)(=O)c1ccc(N2N=C(c3ccc(O)cc3)CC2c2ccc(Cl)cc2)cc1 (stereo unspecified)              no
21              CN(C)c1ccc(/C=C/c2ccccn2)cc1             yes

---

Quick reference for photoluminescence quantum yield among some molecules
assay: photoluminescence quantum yield (fraction); solvent given as SMILES; details: in C1CCOC1

Molecule	photoluminescence quantum yield
O=C1c2ccccc2-c2ccc(N3CCN(c4ccccc4)CC3)c3cccc1c23	0.123
CN(C)c1ccc(C(=O)Nc2ccc(Cl)cc2)cc1	0.0101
CC(=O)N(Cc1ccccn1)c1c2ccccc2c2c3c(cccc13)C(=O)N(Cc1ccccn1)C2=O	0.36
CCCCN1C(=O)c2cc(Oc3ccc(C(C)(C)C)cc3)c3c4c(Oc5ccc(C(C)(C)C)cc5)cc5c(=O)[nH]/c(=C\c6ccccn6)c6cc(Oc7ccc(C(C)(C)C)cc7)c(c7c(Oc8ccc(C(C)(C)C)cc8)cc(c2c37)C1=O)c4c56	0.336
CCn1c2sccc2c2c3nsnc3c3c4ccsc4n(CC)c3c21	0.51
CCC1(CC)c2ccccc2-c2c1c1c(c3c2C(CC)(CC)c2cc(N(c4ccccc4)c4ccccc4)ccc2-3)C(CC)(CC)c2ccccc2-1	0.49
CN(C)c1ccc(-c2ccc(-c3cc(N4CCCCC4)c(C#N)c4c3-c3ccccc3CC4)cc2)cc1	0.68
O=Cc1cc(O)ccc1O	0.0001
O=S1(=O)C(c2cccs2)=C(c2cccs2)c2ccccc21	0.006
O=C1OC(=O)c2ccc(N(c3ccccc3)c3ccc4ccccc4c3)c3cccc1c23	0.0003
CCC1(CC)c2ccccc2-c2c1c1c(c3c2C(CC)(CC)c2cc(/C=C/c4cccs4)ccc2-3)C(CC)(CC)c2cc(/C=C/c3cccs3)ccc2-1	0.16
COc1cc2oc(=O)c3c4ccc(C(=O)c5ccccc5)cc4c4ccc5cccc6c(c1)c2c3c4c56	0.448
CCOC(=O)C(C(=O)OCC)C1=[N+]2C(=C(c3ccc(C)cc3)c3ccc(Cl)n3[B-]2(F)F)C=C1	0.48
CN(C)c1ccc(C2=Nc3scc(-c4ccc([N+](=O)[O-])cc4)[n+]3[B-](F)(F)O2)cc1	0.001
COc1ccc(-c2c3ccc([nH]3)c3nc(c(-c4ccc([N+](=O)[O-])cc4)c4ccc([nH]4)c4ccc([nH]4)c(-c4ccc(OC)cc4)c4ccc2o4)C=C3)cc1	0.013
CCCCCCC1(CCCCCC)c2cc(-c3nc(-c4ccc5c(c4)C(CCCCCC)(CCCCCC)c4cc(N6c7ccccc7Sc7ccccc76)ccc4-5)nc(-c4ccc5c(c4)C(CCCCCC)(CCCCCC)c4cc(N6c7ccccc7Sc7ccccc76)ccc4-5)n3)ccc2-c2ccc(N3c4ccccc4Sc4ccccc43)cc21	0.01
CN(C)c1cc(C#N)c(N(C)C)c(C#N)c1	0.54
F[B-]1(F)n2c(nc(Br)c2Br)-c2cccc[n+]21	0.32
CCOC(=O)COc1ccc(/C=C/c2c(CC)c(C)c3n2[B-](F)(F)[N+]2=C(c4[nH]c(C)c(CC)c4C)c4ccccc4C2=C3C)cc1	0.28
N#Cc1c(N2CCCCC2)cc(-c2ccc(-c3ccccc3)s2)c2c1CCc1ccccc1-2	0.23
CN(C)c1ccc(C2=Nc3sc4cc(F)ccc4[n+]3[B-](F)(F)O2)cc1	0.72
C(=C\c1ccc(-c2ccc(/C=C/c3ccc(-n4c5ccccc5c5ccccc54)cc3)s2)s1)/c1ccc(-n2c3ccccc3c3ccccc32)cc1	0.1
COc1ccc2n1[B-](F)(F)[N+]1=C(c3ccccc3)C=CC1=C2c1ccc(C)cc1	0.3
FC(F)(F)C(F)(F)C(F)(F)C1=NC2=C(c3ccccc3)C=C3c4cc(-c5ccccc5)c5nc(C(F)(F)C(F)(F)C(F)(F)F)nc6c(-c7ccccc7)cc(c4c56)=C4C=C(c5ccccc5)C(=N1)C2C34 (configuration not stated)	0.85
CC(C)(C)c1cc2c3c(c1)-c1cccc4c1N(B3N1c3ccccc3Sc3cccc-2c31)c1ccccc1S4	0.05
O=C1c2cccc3cc4ccccc4c(c23)C(=O)N1Cc1ccccn1	0.83
COc1ccc(-n2c3ccccc3c3cc(C=C(C#N)C#N)ccc32)cc1	0.03
Cc1cc(C2=C(c3cc(C)sc3C)P(=O)(c3ccccc3)c3ccccc32)c(C)s1 (configuration not stated)	0.03
c1ccc(-c2cnc3nn4ccccc4c3c2)cc1	0.38
CCCCCCCCCCCCC1(CCCCCCCCCCCC)c2cc(-c3ccc(C=C4C(=O)c5ccccc5C4=O)cc3)ccc2-c2ccc(-c3ccc(C=C4C(=O)c5ccccc5C4=O)cc3)cc21	0.046
CC(C)(C)c1ccc2c(c1)sc1[n+]2[B-](F)(F)n2c(c3cccc4cccc2c43)=N1	0.85
CCN(CC)c1ccc2cc(/C=C/C(=O)/C=C(O)/C=C/c3cc4ccc(N(CC)CC)cc4oc3=O)c(=O)oc2c1	0.62
